Biological target: T1, antibody raised against ETAG
T1 construct: Coated at 500 ng/well; also called E-tag antibody
Test: phage ELISA
OBSERVED PROPERTY: ETAG (OD)
Remember to quote the unit after the number.

| BINDER | VALUE OBSERVED |
| --- | --- |
| VRAVYSRDAYNEVGRWMRVGIAAAGAPVPYPDPLEPRP [DGI-2-20F-PP-D9] | 9 OD |
| SRGMAEAQFSAWPVLAVFPLAAAGAPVPYPDPLEPRP [DGI-2-20F-PP-H8] | 32.4 OD |

Lab book: ETAG (OD) of SAFGCPLPRALGGGGARFYAAAAGAPVPYPDPLEPRP [DGI-2-20F-PP-E11] noted as 15.2 OD
